- assay overview: qHTS profiling for inhibitors of Plasmodium falciparum proliferation (AID 504749);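 note: 0% = DMSO vehicle and full inhibition = artemisinin control; nearly all actives have a fitted effect of over 60% in size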
- stated conditions: P. falciparum in erythrocytes, SYBR Green DNA, 72 h; at 28.7 µM (top of the series); parasite line B
Records with an inconclusive call do not appear.
Would you kindly list activity, negative = inhibition for each of these compounds?
Give bare numbers, in %.

Reference set (3 entries):
CN1CCC(OC(=O)C(Oc2ccc(Cl)cc2)Oc2ccc(Cl)cc2)CC1; -8.26
Oc1ccc(Cl)c2c1CCC2; 4.51
C=CC(C)(O)CC/C=C(\C)CCC=C(C)C (stereo not given); -4.38

# map each compound to its activity, negative = inhibition
1. CN(C)CCOc1ccc(/C(=C(/CCCl)c2ccccc2)c2ccccc2)cc1
2. N=C(N)n1cccn1
3. Nc1ncnc2c1ncn2CCOCP(=O)(O)O
4. O=C(NNCNNC(=O)c1ccncc1)c1ccncc1
5. CCCCC/C=C\C/C=C\C/C=C\CCCCC(=O)O
6. Cc1cccc(C)c1NC(=O)C1CCCCN1C (stereo not given)
7. CC(C)c1nc(N(C)S(C)(=O)=O)nc(-c2ccc(F)cc2)c1/C=C/C(O)CC(O)CC(=O)O (stereo not given)

-0.289
1.65
5.72
9.6
-8.25
-9.47
-1.83

* * *

- test target: Phospholipid hydroperoxide glutathione peroxidase GPX4 (Homo sapiens) (UniProt P36969)
- Sequence (P36969 whole entry, looked up): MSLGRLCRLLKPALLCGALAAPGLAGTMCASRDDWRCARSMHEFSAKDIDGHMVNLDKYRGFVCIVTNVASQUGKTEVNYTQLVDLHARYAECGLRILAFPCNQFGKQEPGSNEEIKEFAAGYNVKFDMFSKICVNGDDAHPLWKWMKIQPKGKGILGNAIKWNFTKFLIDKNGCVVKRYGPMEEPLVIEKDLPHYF
- assay overview: Primary qHTS Assay for Inhibitors of Recombinant Selenoprotein Glutathione Peroxidase 4 (GPX4) (AID 1845192); note: nearly all actives have a fitted effect of over 65% in size
- stated conditions: recombinant GPX4, GR-coupled NADPH fluorescence, 15 min; series mostly up to 50 µM
Results filed as inconclusive are left out. The source made the active and inactive calls. The call rests on the fitted dose curve; in most records, active means well fitted inhibition curve with a large enough effect; inconclusive means small, poorly fitted or top-dose-only effect; inactive means flat fitted curve, though single readings scatter.
measurement type: outcome

Reference set (8 entries):
Cc1cccc(C)c1NC(=O)C1CCCCN1C (stereo unspecified); inactive
CC1CCCCN1CCCOC(=O)c1ccccc1 (stereo unspecified); inactive
C[C@H](CCC(=O)O)[C@H]1CC[C@H]2[C@@H]3[C@H](O)C[C@@H]4C[C@H](O)CC[C@]4(C)[C@H]3C[C@H](O)[C@]12C; inactive
CCOC(=O)c1c[nH]c2cc(OCC(C)C)c(OCC(C)C)cc2c1=O; inactive
CN(C)CCC(O)(c1ccccc1)c1ccccc1Cl (stereo unspecified); inactive
CC(=O)Nc1c(I)c(C(=O)N[C@H]2C(O)O[C@H](CO)[C@@H](O)[C@@H]2O)c(I)c(N(C)C(C)=O)c1I (stereo partly specified); inactive
N#Cc1ccc2c(c1)N(CCCN1CCC(O)CC1)c1ccccc1S2; inactive
CCCCC(=O)O[C@H]1CC[C@H]2[C@@H]3CCc4cc(O)ccc4[C@H]3CC[C@]12C; inactive

# map each compound to its outcome
1. CN1CCN(C(c2ccccc2)c2ccc(Cl)cc2)CC1 (stereo unspecified)
2. Cc1ccc(S(=O)(=O)O)cc1C
3. CN1C(=O)OC(C)(C)C1=O

["inactive", "inactive", "inactive"]

* * *

- System: CP265
- assay overview: qHTS profiling for inhibitors of Plasmodium falciparum proliferation (AID 504749);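 note: 0% = DMSO vehicle and full inhibition = artemisinin control; nearly all actives have a fitted effect of over 60% in size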
- stated conditions: P. falciparum in erythrocytes, SYBR Green DNA, 72 h; series mostly up to 28.7 µM
Records with an inconclusive call do not appear. Active and inactive are the calls of the source. Calls come from the whole dose curve; as a rule, active = well fitted inhibition curve with a large enough effect; inconclusive = small, poorly fitted or top-dose-only effect; inactive = flat fitted curve, though single readings scatter.
Permitted responses: True for active, False for inactive

Would you please look over these solved cases?
CC(C)(Oc1ccc(C2CCCc3ccccc32)cc1)C(=O)O (centres undefined); False
C[C@]12CC[C@@H]3c4ccc(OC(=O)c5ccccc5)cc4CC[C@H]3[C@@H]1CC[C@@H]2O; False
NCCO/C=C/[C@H](N)C(=O)O; False
CC[C@H]1OC(=O)[C@H](C)[C@@H](O[C@H]2C[C@@](C)(OC)[C@@H](O)[C@H](C)O2)C(C)[C@@H](O[C@@H]2O[C@H](C)C[C@H](N(C)C)[C@@H]2O)[C@](C)(OC)C[C@@H](C)C(=O)[C@H](C)[C@@H](O)[C@]1(C)O (some centres undefined); False
C=CCCCCCCCCC(=O)OC; False

Here is another compound to look at.
I would be grateful if you could indicate the recorded call for c1ccc(-n2cnnn2)cc1 .
False
